target: DtabGOBP2 (Dendrolimus tabulaeformis, UniProt A0A059PCR0); experiment: Competitive fluorescence binding assay (displacement of 1-NPN), DtabGOBP2; conditions: pH 7.4, read-out: %of max±SE
Sequence (A0A059PCR0 entry or part of it): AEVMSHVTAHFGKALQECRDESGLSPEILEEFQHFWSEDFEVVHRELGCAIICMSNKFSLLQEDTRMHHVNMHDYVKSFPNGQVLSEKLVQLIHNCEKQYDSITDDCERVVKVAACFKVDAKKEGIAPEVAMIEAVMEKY
measuredAttribute: activity at 16 µM (%)
Please give a number only; it is taken to be in %.

Return reported activity at 16 µM; argument: CC1=CC=C(C(C)C)CC1 93.2

What value of activity at 16 µM has been recorded for this entry: CC1=CCC(C(C)C)=CC1 99.3

Reported activity at 16 µM, compound C=C1C2CCC(C2)C1(C)C (stereo not shown) : ____ 93.8

For CC/C=C\CCO [(Z)-3-Hexen-1-ol, (Z)-3-hexen-1-ol] , what is its reported activity at 16 µM? 90.8
